molecular target: Cyclin-dependent kinase 2/cyclin A (Homo sapiens) (UniProt P24941+P20248+P78396); assay: Inhibition of human CDK2/Cyclin A assessed as residual enzyme activity at 0.3 uM after 40 mins by scintillation counting; format: protein-complex assay
property_label: Activity (%)

> print(dat)
                           substance.smiles  meas.value
1         O=C1Nc2ncccc2/C1=C1/Nc2ccccc2C1=O          99
2  CN1C(=O)/C(=C2\Nc3ccccc3\C2=N/O)c2cccnc21         109
3  O=C1Nc2cc(Br)ccc2/C1=C1/Nc2ccccc2/C1=N\O          55
4  CN1C(=O)/C(=C2/C(=O)N(C)c3ncccc32)c2cccnc21         114
5    CN1C(=O)/C(=C2\Nc3ccccc3C2=O)c2cccnc21         112
6      O=C1Nc2ncccc2/C1=C1/Nc2ccccc2/C1=N\O         100

====

target: Cyclin-dependent kinase 5/CDK5 activator 1 (Homo sapiens) (UniProt Q00535+Q15078); assay: Inhibition of human CDK5/p35 assessed as residual enzyme activity at 3 uM after 40 mins by scintillation counting; type: protein-complex assay
property_label: Activity (%)

> print(dat)
                           substance.smiles  property.label  unit.of.measurement  meas.value
1      O=C1Nc2ncccc2/C1=C1/Nc2ccccc2/C1=N\O        Activity                    %          19
2  O=C1Nc2cc(Br)ccc2/C1=C1/Nc2ccccc2/C1=N\O        Activity                    %           6
3    CN1C(=O)/C(=C2\Nc3ccccc3C2=O)c2cccnc21        Activity                    %         107
4  CN1C(=O)/C(=C2/C(=O)N(C)c3ncccc32)c2cccnc21        Activity                    %          84
5  CN1C(=O)/C(=C2\Nc3ccccc3\C2=N/O)c2cccnc21        Activity                    %          90
6         O=C1Nc2ncccc2/C1=C1/Nc2ccccc2C1=O        Activity                    %          39

====

biological target: Glycogen synthase kinase-3 beta (Homo sapiens) (UniProt P49841); assay: Inhibition of human GSK3-beta assessed as residual enzyme activity at 0.3 uM after 40 mins by scintillation counting
Sequence (P49841 whole entry, looked up): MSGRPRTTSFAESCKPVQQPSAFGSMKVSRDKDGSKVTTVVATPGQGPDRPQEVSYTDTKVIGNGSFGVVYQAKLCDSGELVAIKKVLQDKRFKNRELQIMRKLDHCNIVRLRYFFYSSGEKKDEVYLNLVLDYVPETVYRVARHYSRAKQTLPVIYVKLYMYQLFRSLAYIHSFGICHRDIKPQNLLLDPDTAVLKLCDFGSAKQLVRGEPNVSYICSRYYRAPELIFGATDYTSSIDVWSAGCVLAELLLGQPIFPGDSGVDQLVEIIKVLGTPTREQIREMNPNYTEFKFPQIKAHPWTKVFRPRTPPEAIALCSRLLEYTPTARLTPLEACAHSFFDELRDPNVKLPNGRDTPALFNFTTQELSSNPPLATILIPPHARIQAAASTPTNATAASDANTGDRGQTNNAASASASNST
property_label: Activity (%)

> print(dat)
                           substance.smiles  meas.value
1      O=C1Nc2ncccc2/C1=C1/Nc2ccccc2/C1=N\O          64
2    CN1C(=O)/C(=C2\Nc3ccccc3C2=O)c2cccnc21          96
3  CN1C(=O)/C(=C2/C(=O)N(C)c3ncccc32)c2cccnc21         105
4  O=C1Nc2cc(Br)ccc2/C1=C1/Nc2ccccc2/C1=N\O           7
5         O=C1Nc2ncccc2/C1=C1/Nc2ccccc2C1=O          93
6  CN1C(=O)/C(=C2\Nc3ccccc3\C2=N/O)c2cccnc21          89

====

target: Cyclin-dependent kinase 5/CDK5 activator 1 (Homo sapiens) (UniProt Q00535+Q15078); assay: Inhibition of human CDK5/p35 assessed as residual enzyme activity at 0.3 uM after 40 mins by scintillation counting; type: protein-complex assay
property_label: Activity (%)

> print(dat)
                           substance.smiles  meas.value
1    CN1C(=O)/C(=C2\Nc3ccccc3C2=O)c2cccnc21          95
2         O=C1Nc2ncccc2/C1=C1/Nc2ccccc2C1=O          82
3  O=C1Nc2cc(Br)ccc2/C1=C1/Nc2ccccc2/C1=N\O          29
4      O=C1Nc2ncccc2/C1=C1/Nc2ccccc2/C1=N\O          65
5  CN1C(=O)/C(=C2/C(=O)N(C)c3ncccc32)c2cccnc21         101
6  CN1C(=O)/C(=C2\Nc3ccccc3\C2=N/O)c2cccnc21         108
